# experimental_details: Human HepG2 cell viability assay in 384 well format
# Format: toxicity, cell-based
# Design: dose 125 nL, time 70.5 hour; concentration not given beside the values
# condition_info: HepG2 cells, read-out: Inhibition
readout: cytotoxicity at 70.5 h
Write the quantity with the unit trailing the number.

Supply cytotoxicity at 70.5 h value. Item: O=c1[nH]c2c(c(=O)n1C1CCCCC1)CCC2Nc1ccccc1Cl (stereo unspecified)
21.6%

Supply cytotoxicity at 70.5 h value. Item: CCC(C)(CC(=O)O)NC(=O)Cc1ccccc1Br (stereo unspecified)
-4.24%

Supply cytotoxicity at 70.5 h value. Item: COc1cc(N2CCCC(c3nccn3Cc3cscn3)C2)nc(N)n1 (stereo unspecified)
-8.38%

Supply cytotoxicity at 70.5 h value. Item: `COc1c(C)cnc(CN2CCC(N(C)S(C)(=O)=O)CC2)c1C`
-16%

Supply cytotoxicity at 70.5 h value. Item: CCCNC(=O)C(C)NC(=O)CCc1ccccc1Br (stereo unspecified)
-6.3%

Supply cytotoxicity at 70.5 h value. Item: `c1cc(-c2ccc3c(c2)CCC32CCN(c3nncs3)CC2)co1`
-9.51%

Reference source: ChEMBL document CHEMBL3507680
